Where do the numbers come from? From patent US10167262B2.

- System: galium (catchweed bedstraw, Galium aparine)
- procedure_summary: Test C pre-/postemergence greenhouse test, plant response rating 0-100
- Type: in vivo
- cond: Postemergence, 250 g ai/ha; scale 0 to 100
Reported Plant response rating, Galium values for the following molecules.

chemical_smiles: Fc1ccccc1NN=C(c1ccccc1)c1c[nH]nc1-c1cc(Cl)cc(Cl)c1
Plant response rating, Galium: 0
//
chemical_smiles: CCn1cc(C(=O)c2ccccc2)c(-c2cc(Br)cc(Br)c2)n1
Plant response rating, Galium: 5
//
chemical_smiles: Cn1cc(C(=O)c2ccccc2)c(-c2cc(Br)cc(Br)c2)n1
Plant response rating, Galium: 0
//
chemical_smiles: ON=C(c1ccccc1)c1c[nH]nc1-c1cc(Cl)cc(Cl)c1
Plant response rating, Galium: 5
//
chemical_smiles: CCn1cc(C(=O)c2cccs2)c(-c2cc(Cl)cc(Cl)c2)n1
Plant response rating, Galium: 0
//
chemical_smiles: CC(C)n1cc(C(=O)c2ccccc2)c(-c2cc(Cl)cc(Cl)c2)n1
Plant response rating, Galium: 0
//
chemical_smiles: O=C(c1ccccc1)c1cn(S(=O)(=O)CCl)nc1-c1cc(Cl)cc(Cl)c1
Plant response rating, Galium: 20
//
chemical_smiles: CCOC(OCC)(c1cccs1)c1c[nH]nc1-c1cc(Cl)cc(Cl)c1
Plant response rating, Galium: 0
